# System: Escherichia coli TOP10
# test-description: shrunken log2 fold change of peptide-encoding DNA abundance (4.5 h post-induction vs induction); higher = less antimicrobial activity (less host growth inhibition)
# measurement-conditions: time post-induction: 4.5 h; library: site-saturation at positions 5, 18, 19, 20
quantity-measured: shrunken log2 fold change

RRIRYRPPRLPRPRPRPVWLPRP	-0.0438
RRIRARPPRLPRPRPRPDVIPRP	0.0534

Now let's try a different one.
Q: Item: `RRIRTRPPRLPRPRPRPSSNPRP` Test system: Escherichia coli TOP10 Read-out: shrunken log2 fold change Value: ?
Result: -0.589

* * *

# Test system: Escherichia coli TOP10
# test-description: shrunken log2 fold change of peptide-encoding DNA abundance (4.5 h post-induction vs induction); higher = less antimicrobial activity (less host growth inhibition)
# measurement-conditions: time post-induction: 4.5 h; library: site-saturation at positions 5, 18, 19, 20
quantity-measured: shrunken log2 fold change
A bare number is all that is needed in reply.

RRIRPRPPRLPRPRPRPCCCPRP	0.368
RRIRDRPPRLPRPRPRPLCIPRP	0.162
RRIRSRPPRLPRPRPRPMDTPRP	0.0136
RRIRCRPPRLPRPRPRPEVHPRP	-0.328
RRIRHRPPRLPRPRPRPEMAPRP	0.253
RRIRWRPPRLPRPRPRPYYQPRP	-0.297
RRIRERPPRLPRPRPRPSDYPRP	-0.627
RRIRIRPPRLPRPRPRPWYHPRP	-0.351
RRIRCRPPRLPRPRPRPIDDPRP	-0.0196

Q: Bench note: what shrunken log2 fold change did `RRIRHRPPRLPRPRPRPKFLPRP` show?
Result: 0.0327

* * *

# Tested on: Escherichia coli TOP10
# test-description: shrunken log2 fold change of peptide-encoding DNA abundance (4.5 h post-induction vs induction); higher = less antimicrobial activity (less host growth inhibition)
# measurement-conditions: time post-induction: 4.5 h; library: site-saturation at positions 5, 18, 19, 20
quantity-measured: shrunken log2 fold change

Below, 3 sequences whose answers are already recorded.
RRIRLRPPRLPRPRPRPLQNPRP	0.166
RRIRERPPRLPRPRPRPFNNPRP	-0.39
RRIRFRPPRLPRPRPRPSINPRP	-0.625

Q: Bench note: what shrunken log2 fold change did `RRIRQRPPRLPRPRPRPSQSPRP` show?
Result: -0.00144

* * *

# System: Escherichia coli TOP10
# test-description: shrunken log2 fold change of peptide-encoding DNA abundance (4.5 h post-induction vs induction); higher = less antimicrobial activity (less host growth inhibition)
# measurement-conditions: time post-induction: 4.5 h; library: site-saturation at positions 5, 18, 19, 20
quantity-measured: shrunken log2 fold change
A bare number is all that is needed in reply.

Below, 8 sequences whose answers are already recorded.
RRIRERPPRLPRPRPRPYRAPRP	0.0532
RRIRRRPPRLPRPRPRPWTQPRP	-0.0997
RRIRPRPPRLPRPRPRPSRHPRP	-0.0917
RRIRQRPPRLPRPRPRPMWSPRP	0.0215
RRIRLRPPRLPRPRPRPWCNPRP	-0.121
RRIRVRPPRLPRPRPRPQTVPRP	-0.0217
RRIRDRPPRLPRPRPRPMAEPRP	0.902
RRIRPRPPRLPRPRPRPGQFPRP	-0.0723

Q: Item: `RRIRQRPPRLPRPRPRPTHSPRP` Test system: Escherichia coli TOP10 Read-out: shrunken log2 fold change Value: ?
Result: 0.415

Q: Ok, now `RRIRFRPPRLPRPRPRPEEMPRP`
Result: -0.00182

Q: Ok, now `RRIRTRPPRLPRPRPRPRVRPRP`
Result: 2.2

Q: Ok, now `RRIRLRPPRLPRPRPRPNIEPRP`
Result: -0.304

Q: Ok, now `RRIRYRPPRLPRPRPRPQKSPRP`
Result: -0.208

Q: Ok, now `RRIRMRPPRLPRPRPRPKIRPRP`
Result: -0.0101

Q: Ok, now `RRIRVRPPRLPRPRPRPQHKPRP`
Result: -0.483

Q: Ok, now `RRIRGRPPRLPRPRPRPLYKPRP`
Result: 0.0468

Q: Ok, now `RRIRARPPRLPRPRPRPRAEPRP`
Result: 0.983

Q: Ok, now `RRIRMRPPRLPRPRPRPNYAPRP`
Result: -0.193

Q: Ok, now `RRIRWRPPRLPRPRPRPNHLPRP`
Result: -0.281

Q: Ok, now `RRIRPRPPRLPRPRPRPDAWPRP`
Result: 0.513

Q: Ok, now `RRIRIRPPRLPRPRPRPPLRPRP`
Result: 0.0855

Q: Ok, now `RRIRKRPPRLPRPRPRPQMGPRP`
Result: 0.0203

* * *

# Tested on: Escherichia coli TOP10
# test-description: shrunken log2 fold change of peptide-encoding DNA abundance (4.5 h post-induction vs induction); higher = less antimicrobial activity (less host growth inhibition)
# measurement-conditions: time post-induction: 4.5 h; library: site-saturation at positions 5, 18, 19, 20
Categorized via shrunken log2 fold change: low interval = under 0.06, middle interval = from 0.06 up to 0.3, high interval = 0.3 and over

RRIRRRPPRLPRPRPRPLGYPRP	middle interval
RRIRCRPPRLPRPRPRPKGVPRP	high interval
RRIRWRPPRLPRPRPRPMDGPRP	high interval
RRIRKRPPRLPRPRPRPHMAPRP	low interval
RRIRIRPPRLPRPRPRPMCQPRP	low interval

Q: Category lookup for the sequence `RRIRYRPPRLPRPRPRPGTNPRP`
Result: low interval

Q: Ok, now `RRIRHRPPRLPRPRPRPSPVPRP`
Result: low interval

Q: Ok, now `RRIRPRPPRLPRPRPRPMVTPRP`
Result: low interval

Q: Ok, now `RRIRARPPRLPRPRPRPGYEPRP`
Result: middle interval

Q: Ok, now `RRIRHRPPRLPRPRPRPPGWPRP`
Result: high interval

Q: Ok, now `RRIRRRPPRLPRPRPRPNKCPRP`
Result: low interval

Q: Ok, now `RRIRSRPPRLPRPRPRPHVVPRP`
Result: middle interval

Q: Ok, now `RRIRGRPPRLPRPRPRPNLQPRP`
Result: high interval

Q: Ok, now `RRIRRRPPRLPRPRPRPTAFPRP`
Result: high interval

* * *

# Test system: Escherichia coli TOP10
# test-description: shrunken log2 fold change of peptide-encoding DNA abundance (4.5 h post-induction vs induction); higher = less antimicrobial activity (less host growth inhibition)
# measurement-conditions: time post-induction: 4.5 h; library: site-saturation at positions 5, 18, 19, 20
Reported shrunken log2 fold change values for a set of sequences
A bare number is all that is needed in reply.

RRIRGRPPRLPRPRPRPGNGPRP	0.434

Q: Bench note: what shrunken log2 fold change did `RRIRGRPPRLPRPRPRPTHTPRP` show?
Result: 0.862

Q: Ok, now `RRIRTRPPRLPRPRPRPNMWPRP`
Result: -0.365

Q: Ok, now `RRIRMRPPRLPRPRPRPHRFPRP`
Result: -0.0727

Q: Ok, now `RRIRRRPPRLPRPRPRPWYRPRP`
Result: -0.151

Q: Ok, now `RRIRYRPPRLPRPRPRPPWQPRP`
Result: -0.121

Q: Ok, now `RRIRSRPPRLPRPRPRPTGNPRP`
Result: -0.275

Q: Ok, now `RRIRQRPPRLPRPRPRPPKYPRP`
Result: -0.313

* * *

# System: Escherichia coli TOP10
# test-description: shrunken log2 fold change of peptide-encoding DNA abundance (4.5 h post-induction vs induction); higher = less antimicrobial activity (less host growth inhibition)
# measurement-conditions: time post-induction: 4.5 h; library: site-saturation at positions 5, 18, 19, 20
Returns yes if the recorded shrunken log2 fold change is greater than or equal to 0.04, and no otherwise.

Observe how each entry below is paired with its result.
RRIRGRPPRLPRPRPRPQMIPRP	yes
RRIRRRPPRLPRPRPRPIPNPRP	yes

Q: Quick check: does `RRIRVRPPRLPRPRPRPFWYPRP` have shrunken log2 fold change greater than or equal to 0.04?
Result: no

Q: Ok, now `RRIRNRPPRLPRPRPRPAFRPRP`
Result: yes

Q: Ok, now `RRIRVRPPRLPRPRPRPILTPRP`
Result: no

Q: Ok, now `RRIRQRPPRLPRPRPRPSCEPRP`
Result: yes

Q: Ok, now `RRIRCRPPRLPRPRPRPEYCPRP`
Result: no

Q: Ok, now `RRIRQRPPRLPRPRPRPIIDPRP`
Result: no

Q: Ok, now `RRIRIRPPRLPRPRPRPAWNPRP`
Result: yes

* * *

Reported shrunken log2 fold change values for a set of sequences
# Test system: Escherichia coli TOP10;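 also: peptides expressed intracellularly from a pBAD plasmid library in pooled LB shake-flask culture, induced with 0.3% L-arabinose, DNA abundance read by NGS, three biological replicates, DESeq2 with apeglm shrinkage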
# test-description: shrunken log2 fold change of peptide-encoding DNA abundance (4.5 h post-induction vs induction); higher = less antimicrobial activity (less host growth inhibition)
# measurement-conditions: time post-induction: 4.5 h; library: site-saturation at positions 5, 18, 19, 20
A bare number is all that is needed in reply.

Below, 2 sequences whose answers are already recorded.
RRIRFRPPRLPRPRPRPETAPRP	0.577
RRIRPRPPRLPRPRPRPRDGPRP	0.694

Q: Bench note: what shrunken log2 fold change did `RRIRIRPPRLPRPRPRPEVMPRP` show?
Result: -0.195

Q: Ok, now `RRIRGRPPRLPRPRPRPHTVPRP`
Result: -0.311

Q: Ok, now `RRIRLRPPRLPRPRPRPRSEPRP`
Result: 0.235

Q: Ok, now `RRIRMRPPRLPRPRPRPFKIPRP`
Result: -0.0716

Q: Ok, now `RRIRPRPPRLPRPRPRPIGFPRP`
Result: 0.2

Q: Ok, now `RRIRTRPPRLPRPRPRPHYWPRP`
Result: -0.25
